system: K562; experiment: CCK-8 proliferation assay, K562; assay type: cell-based; settings: Homo sapiens, CCK-8 kit assay, triplicates, 72 h, read-out: Anti-proliferation activity against cancer cells (IC50), K562
pIC50: −log10 of the molar value.
OBSERVED PROPERTY: pIC50

INSERT INTO results (compound, target_under_test, observed_property, meas_value) VALUES
  ('CS(=O)(=O)c1ccc(-n2cc(C(=O)c3ccccc3O)cn2)cc1 [CK-50]', 'K562', 'pIC50', '< 4.30'),
  ('O=C(O)c1ccc(-n2cc(C(=O)c3ccc(F)cc3O)cn2)cc1 [CK-89]', 'K562', 'pIC50', '< 4.30'),
  ('NS(=O)(=O)c1ccc(-n2cc(C(=O)c3ccccc3O)cn2)cc1 [CK-49]', 'K562', 'pIC50', '< 4.30');

====

assay: MTT cytotoxicity assay, HCT116; assay type: cell-based; settings: human, HCT116 cells, triplicates, read-out: Cytotoxicity against cancer cells (IC50), HCT116
OBSERVED PROPERTY: IC50 at 72 h

INSERT INTO assay_data (molecule, observed_property, meas_value) VALUES
  ('O=C(O)c1ccc(-n2cc(C(=O)c3cc([N+](=O)[O-])ccc3O)cn2)cc1 [CK-62]', 'IC50 at 72 h', '> 50 µM'),
  ('O=C(c1cnn(-c2ccc(OC(F)(F)F)cc2)c1)c1ccccc1O [CK-39]', 'IC50 at 72 h', '26.4 µM'),
  ('O=C(c1cnn(-c2ccccc2)c1)c1ccccc1O [CK-22]', 'IC50 at 72 h', '43.5 µM'),
  ('N#Cc1ccc(-n2cc(C(=O)c3ccccc3O)cn2)cc1 [CK-38]', 'IC50 at 72 h', '> 50 µM');

====

test system: K562; assay: CCK-8 proliferation assay, K562; format: cell-based; details: Homo sapiens, CCK-8 kit assay, triplicates, 72 h, read-out: Anti-proliferation activity against cancer cells (IC50), K562
Each entry below lists one item and its recorded IC50 value.
OBSERVED PROPERTY: IC50

INSERT INTO measurements (chemical_smiles, observed_property, meas_value) VALUES
  ('O=C(O)c1ccc(-n2cc(C(=O)c3ccccc3O)cn2)cc1', 'IC50', '> 50 µM'),
  ('COc1ccc(-n2cc(C(=O)c3ccccc3O)cn2)cn1', 'IC50', '> 50 µM'),
  ('O=C(O)c1ccc(-n2cc(C(=O)c3cc(Cl)cc(Cl)c3O)cn2)cc1', 'IC50', '> 50 µM');

====

Each entry below lists one item and its recorded IC50 at 72 h value.
assay: MTT cytotoxicity assay, JAR; format: cell-based; conditions: human, JAR cells, triplicates, read-out: Cytotoxicity against cancer cells (IC50), JAR
OBSERVED PROPERTY: IC50 at 72 h

INSERT INTO results (chemical_smiles, observed_property, meas_value) VALUES
  ('O=C(O)c1ccc(-n2cc(C(=O)c3ccc(Br)cc3O)cn2)cc1', 'IC50 at 72 h', '> 50 µM'),
  ('COc1ccccc1-n1cc(C(=O)c2ccccc2O)cn1', 'IC50 at 72 h', '> 50 µM'),
  ('O=C(O)c1ccc(-n2cc(C(=O)c3ccccc3O)cn2)cc1', 'IC50 at 72 h', '> 50 µM');

Recorded values, source paper PMC11862924.
